Provenance of the data: FireProtDB (doi:10.1093/protein/12.8.663)

B1: Lysozyme C, P61626 (parent)
chain: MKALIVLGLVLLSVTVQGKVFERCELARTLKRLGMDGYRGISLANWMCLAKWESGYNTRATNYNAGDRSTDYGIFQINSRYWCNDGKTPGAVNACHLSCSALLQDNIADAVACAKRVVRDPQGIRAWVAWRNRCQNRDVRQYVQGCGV

Variants of: B1
Conditions: Homo sapiens; pH 2.7; Thermal; DSC; glycine 0.05 M; reversible: yes; structure 1LZ1; whole UniProt chain shown
Let's look at some variants and their measured heat capacity change of unfolding.
Quick reminder: number only, in kcal/mol/K, skip the unit.

- variant identifier: "Q76G"
  numeric result: 1.34
- variant identifier: "G55Q"
  numeric result: 1.15
- variant identifier: "R68G"
  numeric result: 1.46
- variant identifier: "V118F"
  numeric result: 0.93
- variant identifier: "V92S"
  numeric result: 1.22
- variant identifier: "H96G"
  numeric result: 1.58

Q: Give the measured heat capacity change of unfolding for A50L
Ans: 1.27

Q: Hello, please tell me recorded heat capacity change of unfolding for this one: A114M
Ans: 1.31

Q: Report heat capacity change of unfolding, nothing else, for this variant: E53L
Ans: 1.05
